System: Staphylococcus aureus
procedure.details: Antibacterial activity against Staphylococcus aureus after 18 to 24 hrs
Assay type: functional
Each item that follows carries a reported MIC.
Give the number; µg/mL is assumed, so skip it.

As a guide, the following entries are already answered.
| molecule | units.text | observed.result |
| --- | --- | --- |
| Cc1nc(C[P+](c2ccccc2)(c2ccccc2)c2ccccc2)c(C[P+](c2ccccc2)(c2ccccc2)c2ccccc2)c2c1OC(C(C)C)OC2.[Cl-].[Cl-] (stereo not drawn) | µg/mL | 10 |
| Cc1cccc([P+](Cc2nc(C)c(O)c(CO)c2C[P+](c2cccc(C)c2)(c2cccc(C)c2)c2cccc(C)c2)(c2cccc(C)c2)c2cccc(C)c2)c1.Cl.[Cl-].[Cl-] | µg/mL | 12.5 |

Problem: Sample Cc1nc(C[P+](c2ccccc2)(c2ccccc2)c2ccccc2)c(C[P+](c2ccccc2)(c2ccccc2)c2ccccc2)c2c1OC(C)(C)OC2.[Br-].[Br-] — what was its MIC?
Result: 1.25
